Literature survey of pKi (system: UniProt P50406).
Sequence (P50406 whole entry): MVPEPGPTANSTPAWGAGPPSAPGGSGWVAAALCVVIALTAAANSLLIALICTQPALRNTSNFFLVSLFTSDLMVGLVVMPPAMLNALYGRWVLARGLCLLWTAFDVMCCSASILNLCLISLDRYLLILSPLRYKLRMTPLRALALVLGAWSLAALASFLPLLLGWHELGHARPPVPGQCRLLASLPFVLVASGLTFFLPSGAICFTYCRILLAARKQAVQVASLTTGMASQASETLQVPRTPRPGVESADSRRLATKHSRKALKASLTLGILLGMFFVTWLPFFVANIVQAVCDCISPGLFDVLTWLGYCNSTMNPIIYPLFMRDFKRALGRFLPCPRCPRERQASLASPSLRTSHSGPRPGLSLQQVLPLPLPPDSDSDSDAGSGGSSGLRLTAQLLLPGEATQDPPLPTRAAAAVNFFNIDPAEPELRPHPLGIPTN
pKi: −log10 of the molar value.
MEASURED_PROPERTY: pKi

# COMPOUND, MEASURED_PROPERTY, ENDPOINT_RESULT
data = [
    ("CSc1nc2ccccn2c(=N)c1S(=O)(=O)c1ccccc1", "pKi", 8.40),
    ("CCC(Oc1ccccc1)c1nc(N)nc(N2CCNCC2)n1 (racemic)", "pKi", 6.38),
    ("O=S(=O)(c1ccc(C(F)(F)F)cc1)c1n[nH]c2cc(N3CCNCC3)ccc12", "pKi", 6.68),
]

P. O=S(=O)(c1cccc2ncccc12)N1CCCCC[C@H]1CCN1CCN(c2cccc3sccc23)CC1
Q. O=C1CCc2ccc(OCCCCN3CCN(c4cccc5c4ccn5Cc4ccc(F)cc4)CC3)cc2N1
Q) API: POST /compare with P and Q ; response names the item with higher pKi. State your choice using its label.
A) Q
